Source listed as the supplement of paper PMC13380429.

Can you tell me inhibition of SARS-CoV-2 cytopathic effect for the items I'm about to list?
- Tested on: Vero E6 infected with SARS-CoV-2
- test_details: inhibition of SARS-CoV-2 cytopathic effect; higher = more antiviral protection, active = above 15
- measurement_conditions: 1 nM; 48 h
Numbers only, in %.

Consider the worked cases shown below.
{"molecule": "Cn1cc([S+](C)[O-])c(=O)c2ccc(F)cc21 (stereo unspecified) [flosequinan]", "reported": -1.94}
{"molecule": "O=C(c1ccc(F)cc1)C1CCN(CCn2c(=S)[nH]c3ccccc3c2=O)CC1 [altanserin]", "reported": -0.65}
{"molecule": "Cc1c(Cl)c(C)[n+]([O-])c(Cl)c1-c1noc(-c2cc(O)c(O)c([N+](=O)[O-])c2)n1 [opicapone]", "reported": 2.55}
{"molecule": "CCCCC(=O)N(Cc1ccc(-c2ccccc2-c2nnn[nH]2)cc1)[C@H](C(=O)O)C(C)C [valsartan]", "reported": 0.84}
{"molecule": "CS(=O)(=O)Nc1ccc([N+](=O)[O-])cc1Oc1ccccc1 [nimesulide]", "reported": 0.43}

Quick batch: inhibition of SARS-CoV-2 cytopathic effect for everything below.
1. COCCCOc1ccnc(C[S+]([O-])c2nc3ccccc3[nH]2)c1C (stereo unspecified) [rabeprazole]
2. CCOC(=O)c1ccc(C#Cc2ccc3c(c2)C(C)(C)CCS3)nc1 [tazarotene]
3. O=S(=O)(O)CCS [mesna]
4. CC(=O)c1cnc2ccc(-c3cc(Cl)c(O)c(Cl)c3)nc2c1N[C@H]1CC[C@H](CN(C)C)CC1
5. CCOC(=O)Nc1ccc(NCc2ccc(F)cc2)cc1N [Retigabine]

Solution:
1: -0.56; 2: 0.41; 3: 2.64; 4: -1.51; 5: -1.92

* * *

Can you tell me inhibition of SARS-CoV-2 cytopathic effect for the items I'm about to list?
- Test system: Vero E6 infected with SARS-CoV-2
- test_details: inhibition of SARS-CoV-2 cytopathic effect; higher = more antiviral protection, active = above 15
- measurement_conditions: 833.33 nM; 48 h
Numbers only, in %.

Consider the worked cases shown below.
{"molecule": "O=C(c1ccc(F)cc1)C1CCN(CCn2c(=S)[nH]c3ccccc3c2=O)CC1 [altanserin]", "unit_info": "%", "reported": 2.37}
{"molecule": "C[N+]1(C)[C@@H]2C[C@@H](OC(=O)[C@H](CO)c3ccccc3)C[C@H]1[C@@H]1O[C@@H]12 [methscopolamine]", "unit_info": "%", "reported": 0.62}
{"molecule": "Cc1cccc(Cc2c[nH]cn2)c1C [detomidine]", "unit_info": "%", "reported": -2.3}
{"molecule": "O=C(O)c1cc(=O)[nH]c(=O)[nH]1 [orotic-acid]", "unit_info": "%", "reported": 0.78}
{"molecule": "CCOC(=O)Nc1ccc2c(c1)N(C(=O)CCN1CCOCC1)c1ccccc1S2 [moracizine]", "unit_info": "%", "reported": 2.61}
{"molecule": "CN1CCN(C(=O)O[C@H]2c3nccnc3C(=O)N2c2ccc(Cl)cn2)CC1", "unit_info": "%", "reported": 2.34}
{"molecule": "COc1cc2c(c(OC)c1OC)-c1c(cc3c(c1OC)OCO3)C[C@H](C)[C@@](C)(O)C2 [schisandrol-B]", "unit_info": "%", "reported": 2.33}
{"molecule": "O=C(O)/C=C/c1ccc(O)c(O)c1 [caffeic-acid]", "unit_info": "%", "reported": -0.22}

Switching to the query record.
Problem: Could you tell me which inhibition of SARS-CoV-2 cytopathic effect is on file for C=C1/C(=C\C=C2/CCC[C@]3(C)[C@@H]([C@H](C)/C=C/C=C/C(O)(CC)CC)CC[C@@H]23)C[C@@H](O)C[C@@H]1O [seocalcitol] ?
Solution: 1.95

* * *

- Tested on: Vero E6 infected with SARS-CoV-2
- test_details: inhibition of SARS-CoV-2 cytopathic effect; higher = more antiviral protection, active = above 15
- measurement_conditions: 833.33 nM; 48 h
Can you tell me inhibition of SARS-CoV-2 cytopathic effect for the items I'm about to list?
Numbers only, in %.

{"compound": "Cc1ccc(N(CC2=NCCN2)c2cccc(O)c2)cc1", "reported": 1.86}
{"compound": "CCC[C@@H]1CC2=CC(=O)CC[C@]2(C)[C@H]2CC[C@@]3(C)[C@@H](CC[C@@]3(O)CCC(=O)O)[C@H]12", "reported": -4.91}
{"compound": "Cc1cccc(/C=C/c2ccccc2)n1", "reported": -1.72}

Quick batch: inhibition of SARS-CoV-2 cytopathic effect for everything below.
1. Cc1ncc([N+](=O)[O-])n1CC(C)O (stereo not given)
2. CCOC(=O)Nc1nc2ccccc2[nH]1

Solution:
1. -10.4
2. -6.72

* * *

Can you tell me inhibition of SARS-CoV-2 cytopathic effect for the items I'm about to list?
- Test system: Vero E6 infected with SARS-CoV-2
- test_details: inhibition of SARS-CoV-2 cytopathic effect; higher = more antiviral protection, active = above 15
- measurement_conditions: 100 nM; 48 h

{"compound": "Cc1cnc(-c2cnc(NCCNc3ccc(C#N)cn3)nc2-c2ccc(Cl)cc2Cl)[nH]1", "reported": "-2.16% (inactive)"}

Quick batch: inhibition of SARS-CoV-2 cytopathic effect for everything below.
1. Cc1nc(Nc2n[nH]c3c2CN(C(=O)N[C@H](CN(C)C)c2ccccc2)C3(C)C)c2sccc2n1
2. Cc1c(Cl)c(C)[n+]([O-])c(Cl)c1-c1noc(-c2cc(O)c(O)c([N+](=O)[O-])c2)n1
3. CC(C)C[C@H](NC(=O)N1CCCCCC1)C(=O)N[C@H](Cc1cn(C)c2ccccc12)C(=O)N[C@H](Cc1ccccn1)C(=O)O
4. COc1ccc2cc(C(C)C(=O)Oc3ccc(C(N)=S)cc3)ccc2c1 (stereo not drawn)
5. Cc1ccc(NC2=NCCN2)c(Cl)c1

Solution:
["-3.76% (inactive)", "0.21% (inactive)", "0.97% (inactive)", "-0.37% (inactive)", "0.64% (inactive)"]

* * *

- System: Vero E6 infected with SARS-CoV-2
- test_details: inhibition of SARS-CoV-2 cytopathic effect; higher = more antiviral protection, active = above 15
- measurement_conditions: 1 nM; 48 h
Can you tell me inhibition of SARS-CoV-2 cytopathic effect for the items I'm about to list?

Consider the worked cases shown below.
{"compound": "O=C1CCC(N2C(=O)c3ccccc3C2=O)C(=O)N1 (centres undefined) [thalidomide]", "assayed_system": "Vero E6 infected with SARS-CoV-2", "reported": "5.17% (inactive)"}
{"compound": "O=C(/C=C/N1C[C@H]2C[C@@H]1CN2c1ccccn1)c1ccccc1O", "assayed_system": "Vero E6 infected with SARS-CoV-2", "reported": "-0.57% (inactive)"}
{"compound": "Cc1cc(C)cc(C(=O)O[C@H]2C[C@H]3CC[C@@H](C2)N3C)c1 [tropanyl-3,5-dimethylbenzoate]", "assayed_system": "Vero E6 infected with SARS-CoV-2", "reported": "-1.37% (inactive)"}

Quick batch: inhibition of SARS-CoV-2 cytopathic effect for everything below.
1. c1cnc2cc3c(cc2n1)[C@@H]1CNC[C@H]3C1
2. CSc1ccccc1OCC(O)CNC(C)C (centres undefined)
3. CCCN(CCC)CCc1cccc2c1CC(=O)N2
4. C=Cc1cc(O)cc2nc(-c3ccc(O)c(F)c3)oc12
5. CO/N=C1\C[C@]2(C[C@@H]3C[C@@H](C/C=C(\C)C[C@@H](C)/C=C/C=C4\CO[C@@H]5[C@H](O)C(C)=C[C@@H](C(=O)O3)[C@]45O)O2)O[C@H](/C(C)=C/C(C)C)[C@H]1C
6. Nn1cnc2cc3ccccc3cc2c1=O

Solution:
1. 1.15% (inactive)
2. -1.52% (inactive)
3. 0.18% (inactive)
4. 0.2% (inactive)
5. -5.37% (inactive)
6. -0.59% (inactive)

* * *

Can you tell me inhibition of SARS-CoV-2 cytopathic effect for the items I'm about to list?
- Test system: Vero E6 infected with SARS-CoV-2
- test_details: inhibition of SARS-CoV-2 cytopathic effect; higher = more antiviral protection, active = above 15
- measurement_conditions: 10000 nM; 48 h
Give bare numbers, in %.

{"chemical_smiles": "O=C(O)C(=O)O.[NH-][C@@H]1CCCC[C@H]1[NH-].[Pt+2]", "reported": 1}
{"chemical_smiles": "O=C(O)c1cc(=O)c2c(OCC(O)COc3cccc4oc(C(=O)O)cc(=O)c34)cccc2o1", "reported": -0.11}
{"chemical_smiles": "Oc1ccc(-c2c(-c3ccccc3)nn3c(C(F)(F)F)cc(C(F)(F)F)nc23)cc1", "reported": 11.9}
{"chemical_smiles": "O=C(O)c1ccccc1C(=O)Nc1ccc(S(=O)(=O)Nc2nccs2)cc1", "reported": -0.84}
{"chemical_smiles": "C=C(NC(=O)C(=C)NC(=O)c1csc(C2=N[C@@H]3c4csc(n4)[C@H]4NC(=O)c5csc(n5)[C@H]([C@](C)(O)[C@@H](C)O)NC(=O)[C@H]5CSC(=N5)/C(=C/C)NC(=O)[C@H]([C@@H](C)O)NC(=O)c5csc(n5)[C@]3(CC2)NC(=O)[C@H](C)NC(=O)C(=C)NC(=O)[C@H](C)NC(=O)[C@H]([C@@H](C)CC)N[C@@H]2C=Cc3c([C@H](C)O)cc(nc3[C@H]2O)C(=O)O[C@@H]4C)n1)C(N)=O", "reported": 7.51}

Switching to the query record.
Problem: Could you tell me which inhibition of SARS-CoV-2 cytopathic effect is on file for CCn1c(=O)c2c(nc(/C=C/c3ccc(OC)c(OC)c3)n2C)n(CC)c1=O ?
Solution: 2.33
